Sourced from patent US20230113037A1

# tested.target: AHR (Homo sapiens)
# Construct: U87 MG glioblastoma cells (ATCC #HTB-14) endogenously expressing AHR; endogenous in cells; host or cells: U87 MG glioblastoma cells (ATCC #HTB-14)
# assay.explanation: In vitro assay 1: antagonism in human cell line (AHR transactivation, firefly luciferase reporter, kynurenic acid prestimulated)
# Assay type: cell-based
# test.context: AHR Antagonism Human IC50 [M]
property: IC50 (M)
Reply with just the number (in M).

*Q* What does the record list as IC50 for CSc1cccc2c1nc(N[C@@H]1CCCCNC1=O)n1nc(-c3cnn(C(C)C)c3)nc21 ?
*A* 1.02e-08

*Q* What does the record list as IC50 for CC[C@@H](Nc1nc2c(Br)cccc2c2nc(-c3ccc(OC)cc3OC(F)(F)F)nn12)C(N)=O ?
*A* 1.21e-08

*Q* What does the record list as IC50 for CCCC[C@H](Nc1nc2ccccc2c2nc(-c3cccc(OC(F)(F)F)c3)nn12)C(N)=O (racemic) ?
*A* 6.42e-08

*Q* What does the record list as IC50 for O=C1NCCCC[C@H]1Nc1nc2c(F)cccc2c2nc(-c3cccc(F)c3)nn12 ?
*A* 2.16e-09

* * *

# tested.target: AHR (Homo sapiens, UniProt P35869)
# Construct: U87 MG glioblastoma cells (ATCC #HTB-14) endogenously expressing AHR; endogenous in cells; host or cells: U87 MG glioblastoma cells (ATCC #HTB-14)
# Sequence (P35869 11-848): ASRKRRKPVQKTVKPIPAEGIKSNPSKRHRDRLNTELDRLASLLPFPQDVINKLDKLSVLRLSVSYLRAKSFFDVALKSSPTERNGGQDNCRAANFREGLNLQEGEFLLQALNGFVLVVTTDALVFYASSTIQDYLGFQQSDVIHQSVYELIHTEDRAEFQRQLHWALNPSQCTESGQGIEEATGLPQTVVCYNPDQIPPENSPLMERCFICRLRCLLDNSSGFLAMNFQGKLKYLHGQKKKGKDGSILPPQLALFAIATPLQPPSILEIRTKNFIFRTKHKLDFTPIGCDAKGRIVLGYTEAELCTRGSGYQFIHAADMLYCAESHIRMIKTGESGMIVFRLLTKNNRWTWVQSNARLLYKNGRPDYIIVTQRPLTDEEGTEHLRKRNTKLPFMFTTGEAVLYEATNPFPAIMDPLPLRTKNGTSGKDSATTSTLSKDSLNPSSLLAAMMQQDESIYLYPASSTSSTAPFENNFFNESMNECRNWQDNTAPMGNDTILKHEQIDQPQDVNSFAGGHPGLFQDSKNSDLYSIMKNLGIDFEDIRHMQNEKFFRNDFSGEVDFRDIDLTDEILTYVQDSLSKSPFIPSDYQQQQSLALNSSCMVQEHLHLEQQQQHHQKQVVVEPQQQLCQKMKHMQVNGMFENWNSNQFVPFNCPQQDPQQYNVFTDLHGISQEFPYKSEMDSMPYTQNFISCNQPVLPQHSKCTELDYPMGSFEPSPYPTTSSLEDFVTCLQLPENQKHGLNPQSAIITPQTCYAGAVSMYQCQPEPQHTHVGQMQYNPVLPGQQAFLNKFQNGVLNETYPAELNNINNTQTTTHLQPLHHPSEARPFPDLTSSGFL
# assay.explanation: In vitro assay 1: antagonism in human cell line (AHR transactivation, firefly luciferase reporter, kynurenic acid prestimulated)
# Type: cell-based
# test.context: AHR Antagonism Human IC50 [M], firefly luciferase reporter
property: log10(IC50) (log10 of the value in M)
Could you please treat all values as log10 of IC50 in M?

*Q* What does the record list as log10(IC50) for C[C@@H](Nc1nc2c(Br)cccc2c2nc(-c3cnn(C)c3)nn12)C(=O)NCC(C)(C)N ?
*A* -6.38

*Q* What does the record list as log10(IC50) for COc1ccc(-c2nc3c4cccc(C(C)(C)O)c4nc(N[C@@H]4CCCCNC4=O)n3n2)cc1 ?
*A* -8.39

*Q* What does the record list as log10(IC50) for COc1ccc(-c2nc3c4ccccc4nc(N[C@H](C)C(=O)N4CCNCC4)n3n2)cc1 ?
*A* -7.83

*Q* What does the record list as log10(IC50) for CCOC(=O)[C@@H](C)Nc1nc2c(C(F)(F)F)cccc2c2nc(-c3cnn(C)c3)nn12 ?
*A* -7.59

*Q* What does the record list as log10(IC50) for COc1ccc(-c2nc3c4cccc(OCC(C)(C)O)c4nc(N[C@@H]4CCCCNC4=O)n3n2)cc1 ?
*A* -7.09

*Q* What does the record list as log10(IC50) for C[C@@H](Nc1nc2c(C(F)(F)F)cccc2c2nc(-c3cnn(C)c3)nn12)C(=O)N(C)CCN(C)C ?
*A* -7.06

*Q* What does the record list as log10(IC50) for C[C@@H](Nc1nc2c(Br)cccc2c2nc(-c3cnn(C)c3)nn12)C(=O)N1CC2(CN(C)C2)C1 ?
*A* -5.93

* * *

# tested.target: AHR (Mus musculus, UniProt P30561)
# assay.explanation: In vitro assay 3: antagonism in mouse cell line (AHR transactivation, firefly luciferase reporter, kynurenic acid prestimulated)
# Type: cell-based
# test.context: mouse Hepa 1c1c7 cells, 200 μM kynurenic acid, 20 hours, read-out: AHR Antagonism Mouse IC50
property: IC50

*Q* What does the record list as IC50 for Cn1cc(-c2nc3c4cc(Br)cc(Br)c4nc(N[C@@H]4CCCCNC4=O)n3n2)cn1 [Example 594] ?
*A* > 20000 nM

*Q* What does the record list as IC50 for CCCCNC(=O)CNc1nc2ccccc2c2nc(-c3cc(Cl)ccc3OC(F)(F)F)nn12 [Example 503] ?
*A* > 20000 nM

*Q* What does the record list as IC50 for O=C1NCCNC[C@H]1Nc1nc2ccccc2c2nc(-c3cnn(CCO)c3)nn12 [Example 414] ?
*A* > 20000 nM

*Q* What does the record list as IC50 for O=C1NCCCC[C@@H]1Nc1nc2c(Br)cccc2c2nc(-c3ccc(Cl)cc3OC(F)(F)F)nn12 [Example 572] ?
*A* 131 nM

*Q* What does the record list as IC50 for Cn1ccc(-c2nc3c4cccc(C(F)(F)F)c4nc(N[C@@H]4CCCCNC4=O)n3n2)n1 [Example 735] ?
*A* 9.2 nM

*Q* What does the record list as IC50 for O=C1NCCCC[C@H]1Nc1nc2c(Br)cccc2c2nc(-c3ccccc3OC(F)(F)F)nn12 [Example 208] ?
*A* 23.8 nM

* * *

# tested.target: AHR (Mus musculus)
# Sequence (P30561 1-848 P471L/N533S/M589L): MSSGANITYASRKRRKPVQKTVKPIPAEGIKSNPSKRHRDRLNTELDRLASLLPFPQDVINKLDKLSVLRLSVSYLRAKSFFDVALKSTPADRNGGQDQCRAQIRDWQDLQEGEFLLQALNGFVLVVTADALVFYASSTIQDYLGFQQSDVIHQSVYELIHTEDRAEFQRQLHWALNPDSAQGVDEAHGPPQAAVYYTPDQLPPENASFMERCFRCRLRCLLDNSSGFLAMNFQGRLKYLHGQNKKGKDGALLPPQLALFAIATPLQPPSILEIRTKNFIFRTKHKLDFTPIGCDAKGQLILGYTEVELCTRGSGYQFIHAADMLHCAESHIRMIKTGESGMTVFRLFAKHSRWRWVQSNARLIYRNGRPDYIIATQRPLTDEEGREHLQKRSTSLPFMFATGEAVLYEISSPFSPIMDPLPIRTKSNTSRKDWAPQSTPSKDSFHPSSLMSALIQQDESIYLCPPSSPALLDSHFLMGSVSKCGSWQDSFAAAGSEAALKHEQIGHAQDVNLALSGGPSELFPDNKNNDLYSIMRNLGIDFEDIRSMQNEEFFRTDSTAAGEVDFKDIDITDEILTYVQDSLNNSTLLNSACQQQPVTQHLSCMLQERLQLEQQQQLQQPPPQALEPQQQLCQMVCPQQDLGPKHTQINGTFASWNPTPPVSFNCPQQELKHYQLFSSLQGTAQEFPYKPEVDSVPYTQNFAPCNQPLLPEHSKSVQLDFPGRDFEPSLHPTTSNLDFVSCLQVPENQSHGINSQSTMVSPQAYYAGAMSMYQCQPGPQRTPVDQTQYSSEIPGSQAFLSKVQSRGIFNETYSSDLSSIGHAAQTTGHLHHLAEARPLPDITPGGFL
# assay.explanation: In vitro assay 3: antagonism in mouse cell line (AHR transactivation, firefly luciferase reporter, kynurenic acid prestimulated)
# Assay type: cell-based
# test.context: mouse Hepa 1c1c7 cells, 200 μM kynurenic acid, 20 hours, read-out: AHR Antagonism Mouse IC50
Output 1.0 for records whose IC50 is lower than 4 nM, 0.0 for records at or above 4 nM.

*Q* Lab log: compare recorded IC50 with 4 nM; is it strictly lower for O=C1NCCCC[C@H]1Nc1nc2ccccc2c2nc(-c3cncc(C(F)(F)F)c3)nn12 ?
*A* 1.0

*Q* Lab log: compare recorded IC50 with 4 nM; is it strictly lower for COc1ccc(-c2nc3c4ccccc4nc(N[C@@H]4CCCCNC4=O)n3n2)c(OC(F)(F)F)c1 ?
*A* 0.0

*Q* Lab log: compare recorded IC50 with 4 nM; is it strictly lower for CCCNC(=O)[C@H](CC)Nc1nc2c(Br)cccc2c2nc(-c3ccc(Cl)cc3OC(F)(F)F)nn12 ?
*A* 0.0

*Q* Lab log: compare recorded IC50 with 4 nM; is it strictly lower for O=C1NCCCC1Nc1nc2ccccc2c2nc(-c3ccc(F)cc3)nn12 (stereo not drawn) ?
*A* 0.0

*Q* Lab log: compare recorded IC50 with 4 nM; is it strictly lower for COc1cccc(-c2nc3c4cc(C)ccc4nc(NC4CCCNC4=O)n3n2)c1 (stereo not drawn) ?
*A* 0.0

*Q* Lab log: compare recorded IC50 with 4 nM; is it strictly lower for O=C1NCCCC[C@H]1Nc1nc2ccccc2c2nc(-c3cccc(C(F)(F)F)n3)nn12 ?
*A* 0.0

*Q* Lab log: compare recorded IC50 with 4 nM; is it strictly lower for O=C1NCCCC[C@H]1Nc1nc2ccccc2c2nc(-c3cc(F)ccc3OC(F)(F)F)nn12 ?
*A* 0.0

*Q* Lab log: compare recorded IC50 with 4 nM; is it strictly lower for CC[C@@H](Nc1nc2ccccc2c2nc(-c3cc(F)ccc3OC(F)(F)F)nn12)C(N)=O ?
*A* 1.0

*Q* Lab log: compare recorded IC50 with 4 nM; is it strictly lower for CC[C@@H](Nc1nc2ccccc2c2nc(-c3csc(C)c3)nn12)C(N)=O ?
*A* 1.0

* * *

# tested.target: AHR (Homo sapiens, UniProt P35869)
# Construct: U87 MG glioblastoma cells (ATCC #HTB-14) endogenously expressing AHR; endogenous in cells; host or cells: U87 MG glioblastoma cells (ATCC #HTB-14)
# assay.explanation: In vitro assay 1: antagonism in human cell line (AHR transactivation, firefly luciferase reporter, kynurenic acid prestimulated)
# Format: cell-based
# test.context: AHR Antagonism Human IC50 [M], firefly luciferase reporter
property: IC50 (M)
Reply with just the number (in M).

*Q* What does the record list as IC50 for C[C@@H](Nc1nc2c(Br)cccc2c2nc(-c3cnn(C)c3)nn12)C(=O)N1CCOCC1 ?
*A* 2.38e-08

*Q* What does the record list as IC50 for CC(C)n1cc(-c2nc3c4cccc(Cl)c4nc(N[C@@H]4CNCCNC4=O)n3n2)cn1 ?
*A* 5.77e-09

*Q* What does the record list as IC50 for COc1ccc(-c2nc3c4cccc(Br)c4nc(N[C@H](C)C(=O)N4CCOC[C@H]4C)n3n2)cc1 ?
*A* 1.57e-09
